assay target: purified HLA-DR4 (HLA-DRB1*0401) (human)
method notes: radioligand binding
Mark satisfied only when IC50 stays strictly below 300 nM. Values equal to the cut-off are not satisfied.

binder: WNRQLYPEWTTAQRLD [gp100 44-59 APL E54T]
class: satisfied
//
binder: WNRQLYPAWTEAQRLD [gp100 44-59 APL E51A]
class: satisfied
//
binder: WNRQLYAEWTEAQRLD [gp100 44-59 APL P50A]
class: satisfied
//
binder: WNRQLYPEWTLAQRLD [gp100 44-59 APL E54L]
class: satisfied
//
binder: WNRQLYPEWTEGQRLD [gp100 44-59 APL A55G]
class: not satisfied
//
binder: WNRQLYPEWTEAARLD [gp100 44-59 APL Q56A]
class: satisfied
//
binder: WNRQLYPEWVEAQRLD [gp100 44-59 APL T53V]
class: not satisfied
//
binder: WNRQLYPEATEAQRLD [gp100 44-59 APL W52A]
class: not satisfied
//
binder: WNRQFYPEWTEAQRLD [gp100 44-59 APL L48F]
class: satisfied
